test: Solubility in water; format: physicochemical; conditions: water; restates 0.2 μM; read-out: water-solubility
Parameter: solubility (µg/mL)
Numeric only. Scale: µg/mL

Problem: Can you look up the measured solubility of Brc1cccc(-c2cc(-c3ccc4c(c3)OCO4)n[nH]2)c1 [anle138b] for me?
Result: 0.07

----------
assay: Solubility in water; format: physicochemical; details: water; read-out: solubility in water
Parameter: solubility (µM)
Supply the numeric figure in µM, leaving out any unit text.

Problem: Name the reported solubility value associated with the compound Brc1cccc(-c2cc(-c3ccc4c(c3)OCO4)n[nH]2)c1 [anle138b]
Result: 0.2

----------
experiment: Water-solubility test (visual inspection); type: physicochemical; conditions: deionized water, water, thermodynamic from solid; read-out: amount soluble in water
Parameter: solubility at 10 min

Problem: May I ask what solubility at 10 min has been recorded for Brc1cccc(-c2cc(-c3ccc4c(c3)OCO4)n[nH]2)c1 [anle138b] ?
Result: 0.0686 µg/mL
